system: EKVX NSCLC; test: NCI tumour cell line growth inhibition, 48 h

| compound | GI50 |
| --- | --- |
| COc1ccccc1/C=C/C(=O)c1ccc(Nc2nc(Nc3ccc(F)cc3)nc(Nc3ccc(F)cc3)n2)cc1 | 38.1 µM |
| COc1cc(C(=O)/C=C/c2c(-c3cccs3)nc3sccn23)cc(OC)c1OC | 2.41 µM |
| COc1ccc(-c2cc(C(=O)N3N=C(c4ccc(N)cc4)CC3c3ccc(Cl)cc3)c3ccccc3n2)cc1 (stereo not given) | 3.78 µM |
| COc1cc(/C=C/[N+](=O)[O-])c([N+](=O)[O-])cc1OC | 8.98 µM |
| O=C(/C=C/c1c(-c2ccccc2)[nH]c2ccccc12)S(=O)(=O)c1ccccc1 | 4.37 µM |

---

tested on: IGROV1 ovarian; experiment: NCI tumour cell line growth inhibition, 48 h
Measured TGI of individual entries

| molecule | system_tested | TGI |
| --- | --- | --- |
| Nc1cnc(Nc2cccc3ccccc23)o1 | IGROV1 ovarian | > 10 µM |
| O=c1[nH]c2cc([N+](=O)[O-])ccc2nc1/C(=N/Nc1ccccc1)C(O)c1ccc(Cl)cc1Cl (stereo not drawn) | IGROV1 ovarian | > 100 µM |
| CN1CCN(CCCNN)CC1 | IGROV1 ovarian | > 100 µM |
| Cc1cccc(/C=N/NC(=S)Nc2ccc(Cl)cc2)n1 | IGROV1 ovarian | 12.7 µM |
| CN(C)CCNc1c2c(c(NCCN(C)C)c3c(CN(C)C)c[nH]c13)C(=O)c1ccccc1C2=O | IGROV1 ovarian | 11.7 µM |
| NCCC1([N+](=O)[O-])C=CN=CC1 (stereo not drawn) | IGROV1 ovarian | > 100 µM |
| COC1=C(C)C(=O)N2[C@@H]1[C@H](c1ccccc1)OC21C=CC(=O)C=C1 | IGROV1 ovarian | 21.7 µM |
| CCOC(=O)/C=C1/Oc2ccccc2C1(C)O (stereo not drawn) | IGROV1 ovarian | > 100 µM |
| CCCCCCCCCCCCCCCCOCC(Cl)CP(=O)(O)OP(=O)(O)OCC1OC(n2cnc3c(N)ncnc32)C(O)C1O (stereo not drawn) | IGROV1 ovarian | > 100 µM |
| CC1(C)OC(C(C)(C)O)C(C(C)(C)O)O1 (stereo not drawn) | IGROV1 ovarian | > 100 µM |
| CCOc1cc(NC(C)=O)ccc1C(=O)NNS(=O)(=O)c1ccc(Cl)cc1Cl | IGROV1 ovarian | > 50 µM |
| c1ccc(COC2NCCN2Cc2ccccc2)cc1 (stereo not drawn) | IGROV1 ovarian | > 100 µM |
| CCOC(=O)c1cc(C(=O)c2cc(OC)cc(OC)c2)n2nc(C)ccc12 | IGROV1 ovarian | > 100 µM |
| C=C1C(O)C2C(=C(CC(C)C)C13CC3)C(=O)C(C)(C)C2O (stereo not drawn) | IGROV1 ovarian | > 100 µM |
| C=CCOC1=C(OC(C)=O)C(=O)OC1C1COC(C)(C)O1 (stereo not drawn) | IGROV1 ovarian | > 100 µM |
| O=C(/C=C/c1c(-c2ccccc2)[nH]c2ccccc12)S(=O)(=O)c1ccccc1 | IGROV1 ovarian | > 100 µM |
| OCN(CO)c1ccc2c(c1)Cc1cc(F)ccc1-2 | IGROV1 ovarian | 43 µM |
| CC(C)(C)OC(=O)NCC(=O)NC1CC=CCC1NC(=O)CNC(=O)OC(C)(C)C (stereo not drawn) | IGROV1 ovarian | > 100 µM |
| CC(=O)O[C@]1(C)CCC2C(C)C(=O)OC2C2C(C)[C@@H](O)CC21 (stereo partly drawn) | IGROV1 ovarian | > 100 µM |
| CC(C#N)NCc1ccc(C(C)NC(C)C#N)cc1 (stereo not drawn) | IGROV1 ovarian | > 100 µM |
| COc1cc2c3c(c1Oc1nnnn1-c1ccccc1)-c1c(ccc4c1OCO4)C[C@H]3N(C)CC2 | IGROV1 ovarian | > 100 µM |
| Cc1cccc(NS(=O)(=O)c2ccc3c(c2)OCCOCCOCCOCCO3)c1 | IGROV1 ovarian | > 100 µM |
| CCc1cccc(C(C)CC)c1NC(=O)CC1C(=O)Nc2ccccc2S1(=O)=O (stereo not drawn) | IGROV1 ovarian | > 100 µM |
